measurementProtocol: NCI Yeast Anticancer Drug Screen. Data for the rad50 strain (AID 155);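 also: 0% = growth of vehicle-only cultures of the same strain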
conditionSummary: S. cerevisiae rad50 strain growth inhibition; at 50.0 µM
About 79,000 compounds went through this panel and 15% of them were active in at least one assay; those are over-represented in the sample as a whole. Calls of active or inactive are those of the source. Rule as the data show it: active = growth inhibition above about 70%; inactive = the rest.
In this exercise, the only acceptable responses are 1 = active, -1 = inactive

Here are 3 compounds together with their reported answers.
- compound: "O=S(=O)(/N=C(Cl)/C(Cl)=N/S(=O)(=O)c1ccccc1)c1ccccc1"
  assignedLabel: -1
- compound: "CNc1nc(Cl)nc2c1nc(SC)n2-c1ccccc1"
  assignedLabel: -1
- compound: "CCN(CC)c1ccc2c(c1)Oc1ccc(N(C(C)=O)c3ccccc3)cc1C21OC(=O)c2ccccc21 (centres undefined)"
  assignedLabel: -1

*Q* How was COc1cc2c(c([N+](=O)[O-])c1)NC(=O)C(C)S2 (centres undefined) classified in this test?
*A* -1

*Q* How was c1ccc(C2(c3ccccc3)SC2(c2ccccc2)c2ccccc2)cc1 classified in this test?
*A* -1

*Q* How was Nc1nc(Cc2ccccc2)cc(-c2cc(Cc3ccccc3)nc(N)n2)n1 classified in this test?
*A* -1

*Q* How was Cc1ccc([N+](=O)[O-])c2c(NCCC[N+](C)(C)[O-])ccnc12 classified in this test?
*A* -1

*Q* How was CCOC(=O)/C(C#N)=C/c1cccc(Cl)c1 classified in this test?
*A* -1

###

measurementProtocol: NCI Yeast Anticancer Drug Screen. Data for the bub3 strain (AID 167)
conditionSummary: S. cerevisiae bub3 mutant strain, at 50.0 µM, active compounds read high
Compounds without any hit were thinned out: in the full panel of roughly 79,000, 15% have a hit.
The following compounds are shown together with reported growth inhibition values.
Numeric only. Scale: %

Guide cases for growth inhibition, answers given:
- compound: "Cn1c2ccccc2c2ccc3c(c21)C(=O)NC3=O"
  measurementKind: "growth inhibition"
  testResult: -21.9
- compound: "O=C1C=CC2C=CC1C=C2"
  measurementKind: "growth inhibition"
  testResult: -7.7
- compound: "CC1=C(c2ccccc2)C(c2ccccc2)c2ccccc21 (stereo unspecified)"
  measurementKind: "growth inhibition"
  testResult: 54.4
- compound: "C#CC(C)(C)OCC(O)CCl (stereo unspecified)"
  measurementKind: "growth inhibition"
  testResult: -15.4
- compound: "NC(=O)NC(=O)OCC(F)(F)C(F)(F)C(F)(F)C(F)(F)C(F)(F)C(F)(F)C(F)(F)F"
  measurementKind: "growth inhibition"
  testResult: -0.45

// recorded growth inhibition for CSC1NN=C(CCC(=O)Nc2ccc(C)cc2)O1 (stereo unspecified) : -3.8

###

The following compounds are shown together with reported growth inhibition values.
measurementProtocol: NCI Yeast Anticancer Drug Screen. Data for the sgs1 mgt1 strain (AID 161);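 also: 0% = growth of cultures given vehicle only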
conditionSummary: S. cerevisiae sgs1 mgt1 strain, at 50.0 µM, active compounds read high
This is part of a sample that, as a whole, favours compounds with a hit. Of some 79,000 tested, about 15% had one in any assay.
Numeric only. Scale: %

- compound: "Cc1ccc2nc(CC(=O)c3ccc(F)cc3)c(=O)[nH]c2c1"
  growth inhibition (%): 16.1
- compound: "CCOc1ccccc1C(=O)Oc1ccc(C)cc1"
  growth inhibition (%): 7.1
- compound: "N#CCCN(c1ccc(C=Nc2cccc([N+](=O)[O-])c2)cc1)S(=O)(=O)c1ccccc1"
  growth inhibition (%): 14.7

// recorded growth inhibition for C[N+](C)(C)/C=C/c1ccccc1 : 21

// recorded growth inhibition for Cc1ccc(S(=O)(=O)/C(C#N)=C/NC(=S)Nc2ccc(C)cc2C)cc1 : -30.8

// recorded growth inhibition for NC(Cc1cc(I)c(Oc2ccc(O)c(I)c2)c(I)c1)C(=O)O (stereo unspecified) : -9.5

###

measurementProtocol: NCI Yeast Anticancer Drug Screen. Data for the rad50 strain (AID 155);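 also: 0% = growth of vehicle-only cultures of the same strain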
conditionSummary: S. cerevisiae rad50 strain growth inhibition; at 50.0 µM; active compounds read high
About 79,000 compounds went through this panel and 15% of them were active in at least one assay; those are over-represented in the sample as a whole.
The following molecules are shown together with reported growth inhibition values.
Numeric only. Scale: %

Guide cases for growth inhibition, answers given:
- molecule: "CC(=O)OCC1OC(n2c(=S)n(-c3ccc([N+](=O)[O-])cc3)c(=O)c3ccccc32)C(OC(C)=O)C(OC(C)=O)C1OC(C)=O (stereo not given)"
  unitsText: "%"
  testResult: -6.3
- molecule: "CCNC(=O)CCN(C(=O)O)S(=O)(=O)c1ccc(NC(=O)c2ccccc2)cc1"
  unitsText: "%"
  testResult: -23.2
- molecule: "C=CCNC(=O)N(CCCCC(NC(C)=O)C(=O)NCc1ccccc1)Cc1ccccc1 (stereo not given)"
  unitsText: "%"
  testResult: 11.7

// recorded growth inhibition for CCOC(=O)COc1ccc(Cl)cc1CCl : 3.2

// recorded growth inhibition for COc1cc(Nc2nc3ccccc3nc2C(=O)O)cc(OC)c1OC : -26.2

###

measurementProtocol: NCI Yeast Anticancer Drug Screen. Data for the rad50 strain (AID 155);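 also: 0% = growth of vehicle-only cultures of the same strain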
conditionSummary: S. cerevisiae rad50 strain growth inhibition; at 50.0 µM
Compounds without any hit were thinned out: in the full panel of roughly 79,000, 15% have a hit. Calls of active or inactive are those of the source. Cut-off read from the data, not from the text of the source: active = growth inhibition above about 70%; inactive = the rest.
In this exercise, the only acceptable responses are Yes for active, No for inactive

Here are 3 compounds together with their reported answers.
- compound: "CC(C)(C#N)NC(=O)NC(C)(C)C(N)=O"
  assignedLabel: "No"
- compound: "CCCCC/C(C)=C\\C(=O)O"
  assignedLabel: "No"
- compound: "C=Cc1c(C)c(C)c(C=C)c(C)c1C"
  assignedLabel: "No"

*Q* How was CCN(Cc1ccc(S(=O)(=O)O)cc1)c1cccc(S(=O)(=O)O)c1 classified in this test?
*A* No

*Q* How was Nc1ccccc1C(=O)Nc1ccccn1 classified in this test?
*A* No

*Q* How was OCCCCCCOc1ccc(-c2cc(-c3ccccn3)nc(-c3ccccn3)c2)cc1 classified in this test?
*A* No

###

measurementProtocol: NCI Yeast Anticancer Drug Screen. Data for the bub3 strain (AID 167)
conditionSummary: S. cerevisiae bub3 mutant strain, at 50.0 µM
Compounds without any hit were thinned out: in the full panel of roughly 79,000, 15% have a hit. Activity calls are given as the source filed them. Cut-off read from the data, not from the text of the source: active = growth inhibition above about 70%; inactive = the rest.
In this exercise, the only acceptable responses are Yes for active, No for inactive

*Q* How was CCOC(O)C(F)(F)C(F)(F)C(F)(F)F (stereo not drawn) classified in this test?
*A* No

*Q* How was O=C(CCN1C(=O)CC1c1ccco1)N1CCOCC1 (stereo not drawn) classified in this test?
*A* No

*Q* How was CCOC(=O)C(N)C(O)c1ccncc1 (stereo not drawn) classified in this test?
*A* No

*Q* How was C[N+](C)(C)C12CCC(CC1)C1([N+](C)(C)C)CCC2CC1 classified in this test?
*A* No

*Q* How was CC(O)C1CCCCN1 (stereo not drawn) classified in this test?
*A* No

*Q* How was CC(=O)[C@H]1CC[C@H]2[C@@H]3CC=C4C=CCC[C@@H]4[C@H]3CC[C@]12C classified in this test?
*A* No

*Q* How was Br/C=C\Br classified in this test?
*A* No

*Q* How was CC(c1ccccc1)C(O)S(=O)(=O)O (stereo not drawn) classified in this test?
*A* No

*Q* How was CC(=O)NC(NCCN)(c1ccccc1)c1ccccc1 classified in this test?
*A* No

*Q* How was CCCCC(CC)COS(=O)(=O)O (stereo not drawn) classified in this test?
*A* No

*Q* How was Cc1nc(-c2ccccc2)ncc1C(O)CN(C)C (stereo not drawn) classified in this test?
*A* No

*Q* How was COC(=O)C1(CC(=O)CC(=O)CC2(C(=O)OC)NC(=S)NC(=O)C2C#N)NC(=S)NC(=O)C1C#N (stereo not drawn) classified in this test?
*A* No

*Q* How was Cc1ccc(N=Nc2c(N)ccc3ccccc23)cc1 classified in this test?
*A* Yes

###

measurementProtocol: NCI Yeast Anticancer Drug Screen. Data for the rad50 strain (AID 155);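 also: 0% = growth of vehicle-only cultures of the same strain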
conditionSummary: S. cerevisiae rad50 strain growth inhibition; at 50.0 µM; active compounds read high
This is part of a sample that, as a whole, favours compounds with a hit. Of some 79,000 tested, about 15% had one in any assay.
The following compounds are shown together with reported growth inhibition values.
Numeric only. Scale: %

Guide cases for growth inhibition, answers given:
- compound: "O=C(O)[C@@H]1[C@H](C(=O)O)[C@H](C(=O)O)C[C@@H]1C(=O)O"
  testResult: 6.2
- compound: "CC(C)Sc1nc2ccc(NC(=O)/C=C/C(=O)O)cc2s1"
  testResult: 18.9
- compound: "CN(C)CCNC(=O)c1cccc(C(C)(C)C)c1[N+](=O)[O-]"
  testResult: -11.2
- compound: "NC1CCCCC1NCCNC1CCCCC1N (centres undefined)"
  testResult: -3.15
- compound: "N#CC1C2C1C1C=CC2n2c(=O)n(-c3ccccc3)c(=O)n21 (centres undefined)"
  testResult: 3
- compound: "COc1cccc(C(=O)O)c1[N+](=O)[O-]"
  testResult: -19.1
- compound: "Cc1n(C)c(=O)c2ccccc2[n+]1C"
  testResult: 5.35
- compound: "COc1ccc(OC)c(NC(=O)NN(C)C)c1"
  testResult: -31.4
- compound: "O=C(O)Cc1ccc2ccccc2c1"
  testResult: 6.3
- compound: "CC(=O)Oc1cccc(OC(C)=O)c1"
  testResult: 41.8

// recorded growth inhibition for Cc1ccc(COC(=O)Nc2ccc(C)c(NC(=O)OCc3ccc(C)cc3)c2)cc1 : 14.4

// recorded growth inhibition for O=c1[nH]c2cc(Br)c(Br)cc2c2ccc(Br)cc12 : 43

// recorded growth inhibition for COc1ccc(/C(C)=N/NC(=O)CC(=O)N(C(=O)c2ccccc2)c2ccc(C)cc2)cc1 : -8.45
